The reported measurements were obtained from ChEMBL document CHEMBL1132570.

# System: UACC-62
# assay.notes: In vitro cytotoxicity against UACC-62 (Human melanoma) cell line.
# Type: functional
readout.label: GI50 (µM)
Respond numerically; units are µM and should not be typed.

>  <smiles.str>
Cn1c2c(c3ccccc3c1=O)C(=O)c1cc(OCc3ccccc3)c(OCc3ccccc3)cc1-2

>  <output.unit>
µM

>  <GI50>
93

$$$$

Prompt: If you can, please state the reported GI50 value of COc1cc2c3c(n(CCCCO)c(=O)c2cc1OC)-c1cc2c(cc1C3=O)OCO2 .
Completion: 0.99

Prompt: If you can, please state the reported GI50 value of COc1cc2c(cc1OC)[C@H]1C(=O)c3cc4c(cc3[C@H]1N(C)C2=O)OCO4 .
Completion: 0.42

Prompt: If you can, please state the reported GI50 value of COc1cc2c3c(n(C)c(=O)c2cc1OC)-c1cc2c(cc1C3=O)OCO2 .
Completion: 4.2

Prompt: If you can, please state the reported GI50 value of COc1cc2c3c(n(C)c(=O)c2cc1OC)-c1cc(OC)c(OC)c(OC)c1C3=O .
Completion: 55

Prompt: If you can, please state the reported GI50 value of CCN1C(=O)c2cc(OC)c(OC)cc2[C@H]2C(=O)c3cc4c(cc3[C@H]21)OCO4 .
Completion: 0.18

Prompt: If you can, please state the reported GI50 value of O=C(O)CCCn1c2c(c3ccccc3c1=O)C(=O)c1ccccc1-2 .
Completion: 73

Prompt: If you can, please state the reported GI50 value of COc1cc2c3c(n(Cc4ccccc4)c(=O)c2cc1OC)-c1cc2c(cc1C3=O)OCO2 .
Completion: 50
